target.desc: OX1 (Homo sapiens, UniProt O43613)
Construct: expressed in transfected cells; host or cells: CHO (CHO-OX1, kept under selection antibiotic)
Sequence (O43613 whole entry): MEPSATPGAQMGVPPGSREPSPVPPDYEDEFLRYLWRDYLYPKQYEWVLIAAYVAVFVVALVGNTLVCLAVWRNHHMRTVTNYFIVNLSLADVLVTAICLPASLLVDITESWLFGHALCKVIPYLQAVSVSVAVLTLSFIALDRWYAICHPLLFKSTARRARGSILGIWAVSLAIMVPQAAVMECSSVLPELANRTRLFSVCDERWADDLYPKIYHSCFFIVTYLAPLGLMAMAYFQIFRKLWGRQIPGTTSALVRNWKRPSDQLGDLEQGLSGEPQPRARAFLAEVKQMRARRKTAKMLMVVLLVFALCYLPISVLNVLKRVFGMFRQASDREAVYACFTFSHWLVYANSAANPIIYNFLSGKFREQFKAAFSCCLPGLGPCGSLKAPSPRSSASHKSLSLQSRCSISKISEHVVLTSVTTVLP
test.name: Orexin receptor cell-based functional assay, [Ca2+]i by FLIPR, CHO-OX1 cells
cond: CHO-OX1 cells, [Ca2+]i by FLIPR, antagonist dose-range 0.1 nM-10 μM, EC90 of OXA; read-out: OX1
pIC50: −log10 of the molar value.
Would you mind labelling by pIC50? At or over 8 is Yes, under is No.

Observe how each entry below is paired with its result.
>  <compound>
Cc1ccc(-c2cnn(C)c2)c(C(=O)N2CCC[C@@H](C)[C@H]2CNc2nc3cc(Cl)ccc3o2)c1 [Example A12]

>  <assigned.class>
No

$$$$
>  <compound>
Cc1ccc(-n2ncc(C)n2)c(C(=O)N2CCC[C@@H](C)[C@H]2CNc2nc3cc(Cl)ccc3o2)c1 [Example A116]

>  <assigned.class>
Yes

$$$$
>  <compound>
Cc1ccc(-n2nccn2)c(C(=O)N2CCC[C@@H](C)[C@H]2CNc2ncc(C(F)(F)F)cn2)c1 [Example A149]

>  <assigned.class>
Yes

$$$$
>  <compound>
Cc1ccc(-n2nccn2)c(C(=O)N2CCC[C@@H](C)[C@H]2CNc2ccc(C#N)nn2)c1 [Example A145]

>  <assigned.class>
No

$$$$
>  <compound>
Cc1ccc(-n2nccn2)c(C(=O)N2CC3CCCC3C2CNc2ccc(C(F)(F)F)cn2)c1 (stereo not shown) [Example A69]

>  <assigned.class>
No

$$$$

Turning now to a further record.
Check the entry COc1cccc(NC[C@@H]2[C@H](C)CCCN2C(=O)c2cc(C)ccc2-n2nccn2)n1 [Example A80] : does pIC50 equal or exceed 8?
No
